The following molecules are listed with their measured Ie/If values.
- ASSAY_TEXT: Electron-emitting characteristics of device measured with measurement evaluation apparatus
- MEASUREMENT_CONTEXT: Table 1
MEASUREMENT_TYPE: Ie/If (%)

[[record]]
smiles_record = "CC(=O)[O-].CC(=O)[O-].CC(C)(C)NCCO.CC(C)(C)NCCO.[Pd+2]"
reported_result = 0.040

[[record]]
smiles_record = "CC(=O)[O-].CC(=O)[O-].CC(C)NCCO.CC(C)NCCO.[Pd+2]"
reported_result = 0.039

[[record]]
smiles_record = "CC(=O)[O-].CC(=O)[O-].NCCCO.NCCCO.NCCCO.NCCCO.[Pd+2]"
reported_result = 0.041

